# pIC50 per entry for Glycogen synthase kinase-3 beta (Homo sapiens)
// pIC50 is dimensionless: -log10 of concentration (M)

COc1cc(C2=C(c3c[nH]c4cnccc34)C(=O)NC2=O)cc(OC)c1OC :: 8.05

Task: For Glycogen synthase kinase-3 beta (Homo sapiens), give the measured pIC50 of the entry COc1cc(C2=C(c3c[nH]c4ccncc34)C(=O)NC2=O)cc(OC)c1OC
Result: 7.40

---

Target: Vascular endothelial growth factor receptor 2 (Homo sapiens, UniProt P35968)
Sequence (P35968 whole entry): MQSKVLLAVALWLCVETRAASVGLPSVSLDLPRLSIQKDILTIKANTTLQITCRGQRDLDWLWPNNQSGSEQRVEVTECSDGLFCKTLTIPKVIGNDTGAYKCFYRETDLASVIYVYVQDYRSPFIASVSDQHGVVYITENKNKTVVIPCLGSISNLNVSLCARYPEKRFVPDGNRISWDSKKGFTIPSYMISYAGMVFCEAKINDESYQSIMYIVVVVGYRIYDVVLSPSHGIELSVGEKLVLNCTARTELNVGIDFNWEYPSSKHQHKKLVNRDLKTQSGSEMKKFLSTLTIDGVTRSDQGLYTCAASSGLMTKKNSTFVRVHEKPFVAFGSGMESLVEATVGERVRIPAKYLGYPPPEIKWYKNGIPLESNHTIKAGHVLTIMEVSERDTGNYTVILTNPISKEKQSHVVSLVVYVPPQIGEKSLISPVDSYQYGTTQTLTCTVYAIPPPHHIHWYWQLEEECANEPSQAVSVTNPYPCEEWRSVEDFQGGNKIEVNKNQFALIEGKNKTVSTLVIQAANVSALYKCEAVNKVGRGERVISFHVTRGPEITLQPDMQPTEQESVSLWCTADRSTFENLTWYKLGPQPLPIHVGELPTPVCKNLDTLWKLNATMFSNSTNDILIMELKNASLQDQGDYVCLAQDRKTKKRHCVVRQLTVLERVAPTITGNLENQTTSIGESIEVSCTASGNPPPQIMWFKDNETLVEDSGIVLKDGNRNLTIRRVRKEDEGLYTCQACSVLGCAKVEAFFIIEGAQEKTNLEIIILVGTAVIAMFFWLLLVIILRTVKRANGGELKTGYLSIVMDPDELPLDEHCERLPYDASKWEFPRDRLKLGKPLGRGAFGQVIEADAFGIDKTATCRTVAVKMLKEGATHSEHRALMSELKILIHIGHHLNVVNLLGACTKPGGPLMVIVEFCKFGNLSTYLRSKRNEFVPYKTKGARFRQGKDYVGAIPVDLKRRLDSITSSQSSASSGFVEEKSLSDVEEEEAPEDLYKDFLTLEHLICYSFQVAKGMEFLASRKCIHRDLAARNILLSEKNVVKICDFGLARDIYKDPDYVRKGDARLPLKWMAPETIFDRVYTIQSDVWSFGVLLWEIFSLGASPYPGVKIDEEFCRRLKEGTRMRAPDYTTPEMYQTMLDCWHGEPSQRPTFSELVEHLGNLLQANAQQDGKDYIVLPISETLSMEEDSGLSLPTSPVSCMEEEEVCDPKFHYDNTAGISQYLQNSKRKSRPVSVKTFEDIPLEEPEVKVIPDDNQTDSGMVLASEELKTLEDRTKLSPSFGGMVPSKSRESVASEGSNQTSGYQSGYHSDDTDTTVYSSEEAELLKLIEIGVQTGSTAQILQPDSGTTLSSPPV
Parameter measured: pIC50
// pIC50 is dimensionless: -log10 of concentration (M)

Task: For Vascular endothelial growth factor receptor 2 (Homo sapiens, UniProt P35968), give the measured pIC50 of the entry COc1cc(C2=C(c3c[nH]c4ccncc34)C(=O)NC2=O)cc(OC)c1OC
Result: 6.23

---

Molecular target: Receptor-type tyrosine-protein kinase FLT3 (Homo sapiens, UniProt P36888)
Sequence (P36888 whole entry): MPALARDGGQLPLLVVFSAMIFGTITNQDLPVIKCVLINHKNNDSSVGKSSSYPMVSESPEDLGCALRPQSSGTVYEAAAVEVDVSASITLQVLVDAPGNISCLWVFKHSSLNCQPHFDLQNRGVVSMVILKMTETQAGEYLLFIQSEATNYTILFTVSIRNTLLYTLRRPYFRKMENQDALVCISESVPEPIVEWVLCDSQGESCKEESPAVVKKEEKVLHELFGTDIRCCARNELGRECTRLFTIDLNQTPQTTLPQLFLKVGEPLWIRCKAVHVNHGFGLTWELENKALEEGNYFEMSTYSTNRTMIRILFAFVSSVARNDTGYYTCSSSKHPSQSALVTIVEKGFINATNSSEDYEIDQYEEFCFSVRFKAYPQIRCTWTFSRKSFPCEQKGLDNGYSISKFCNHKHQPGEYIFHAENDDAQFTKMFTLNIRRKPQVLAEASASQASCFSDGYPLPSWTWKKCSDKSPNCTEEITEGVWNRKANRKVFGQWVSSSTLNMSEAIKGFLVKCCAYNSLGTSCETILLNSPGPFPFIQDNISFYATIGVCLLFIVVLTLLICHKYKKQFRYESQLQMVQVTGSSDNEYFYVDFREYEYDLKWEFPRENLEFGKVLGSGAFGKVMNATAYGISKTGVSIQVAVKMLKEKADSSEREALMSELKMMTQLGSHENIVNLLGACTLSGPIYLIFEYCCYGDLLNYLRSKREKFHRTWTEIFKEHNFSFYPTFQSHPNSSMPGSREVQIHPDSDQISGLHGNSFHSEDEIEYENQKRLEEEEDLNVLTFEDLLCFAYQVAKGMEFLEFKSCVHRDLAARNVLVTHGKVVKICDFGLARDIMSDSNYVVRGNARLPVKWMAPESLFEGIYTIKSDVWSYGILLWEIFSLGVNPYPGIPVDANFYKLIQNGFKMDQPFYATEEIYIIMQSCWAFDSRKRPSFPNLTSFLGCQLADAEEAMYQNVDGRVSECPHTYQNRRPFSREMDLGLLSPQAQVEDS
pIC50: −log10 of the molar value.
Parameter measured: pIC50

COc1cc(C2=C(c3c[nH]c4cnccc34)C(=O)NC2=O)cc(OC)c1OC :: 7.74

Task: For Receptor-type tyrosine-protein kinase FLT3 (Homo sapiens, UniProt P36888), give the measured pIC50 of the entry COc1cc(C2=C(c3c[nH]c4ccncc34)C(=O)NC2=O)cc(OC)c1OC
Result: ≤ 5.52

Task: For Receptor-type tyrosine-protein kinase FLT3 (Homo sapiens, UniProt P36888), give the measured pIC50 of the entry COc1cc(C2=C(c3c[nH]c4cccnc34)C(=O)NC2=O)cc(OC)c1OC
Result: ≤ 5.82

---

Tested on: MKN-45
Assay: Cytotoxic activity against human MKN45 cells assessed as cell viability at 5 uM incubated for 5 days by MTT assay
Assay type: functional
Settings: MKN-45, 120 h, read-out: Activity
Each entry below lists one item and its recorded viability at 5 µM value.
Write the answer as a number in %, unit excluded.

These solved cases illustrate the format of a correct answer.
COc1cc(C2=C(c3c[nH]c4ccncc34)C(=O)NC2=O)cc(OC)c1OC :: 99
COc1cc(C2=C(c3c[nH]c4ncccc34)C(=O)NC2=O)cc(OC)c1OC :: 86.8
COc1cc(C2=C(c3c[nH]c4cnccc34)C(=O)NC2=O)cc(OC)c1OC :: 105

Below: the item to evaluate.
Task: Complete the entry with viability at 5 µM for COc1cc(OC)cc(C2=C(c3c[nH]c4ncccc34)C(=O)NC2=O)c1
Result: 60.4

---

System: MKN-45
Experiment: Cytotoxic activity against human MKN45 cells assessed as cell viability at 0.5 uM incubated for 5 days by MTT assay
Assay type: functional
Details: MKN-45, 120 h, read-out: Activity
Parameter measured: viability at 0.5 µM (%)
Write the answer as a number in %, unit excluded.

COc1cc(OC)cc(C2=C(c3c[nH]c4ncccc34)C(=O)NC2=O)c1 :: 118
COc1cc(C2=C(c3c[nH]c4cnccc34)C(=O)NC2=O)cc(OC)c1OC :: 99.2

Task: Complete the entry with viability at 0.5 µM for COc1cc(C2=C(c3c[nH]c4ncccc34)C(=O)NC2=O)cc(OC)c1OC
Result: 113

Task: Complete the entry with viability at 0.5 µM for COc1cc(C2=C(c3c[nH]c4ccncc34)C(=O)NC2=O)cc(OC)c1OC
Result: 99.1
